I'd be grateful if you could share measured GI50 for these entries.
- System: TK-10 renal

[[record]]
compound = "O=C1NC(=NCc2cccs2)SC1Cc1ccc2ncccc2c1 (configuration not stated)"
measured_parameter = "GI50"
test_result = "> 25 µM"

[[record]]
compound = "COC1=C(OC)C(=O)C(/C=C(\\C)C(=O)O)=C(C)C1=O"
measured_parameter = "GI50"
test_result = "> 100 µM"

[[record]]
compound = "O=S(=O)(NCCNc1nccc(-c2c(-c3cccc(O)c3)nc3sccn23)n1)c1ccc(F)cc1"
measured_parameter = "GI50"
test_result = "11.9 µM"

[[record]]
compound = "N/C(=N\\O)c1ncc(-c2ccc(C(F)(F)F)cc2)c(NC2CCCCCC2)n1"
measured_parameter = "GI50"
test_result = "2.49 µM"

[[record]]
compound = "O=C1Cc2cc(CCn3ccnc3)c(Cl)cc2N1"
measured_parameter = "GI50"
test_result = "> 100 µM"


# per-item lookup of GI50; items listed below
1. N#Cc1ccc(Oc2nccc(-c3c(-c4ccc(F)cc4)ncn3C3CCNCC3)n2)cc1
2. Cn1cc(-c2csc(-c3c[nH]c4ncccc34)n2)c2cc(Br)cnc21

RESULT:
> 25 µM
3.77 µM

====

- System: RXF 393 renal
- Assay Remarks: NCI tumour cell line growth inhibition, 48 h
Measured Parameter: TGI

Below are worked cases with known answers.
[[record]]
compound = "O=c1oc2ncccc2n1Cc1ccc([N+](=O)[O-])cc1"
measured_parameter = "TGI"
test_result = "> 100 µM"

[[record]]
compound = "CCCCC1Cc2cc(O)ccc2-c2n1c1cc(O)ccc1[n+]2C (centres undefined) (tested in a mixture with another compound)"
measured_parameter = "TGI"
test_result = "> 90.3 µM"

[[record]]
compound = "COc1cccc(Nc2nc(NNC(=O)Cc3ccccc3)nc(NNC(=O)c3ccncc3)n2)c1"
measured_parameter = "TGI"
test_result = "> 100 µM"


Please go through the list and note TGI for each compound.
1. COc1cc(N=C(N)N=C(N)N)c2ncccc2c1
2. COc1ccc(Nc2c3ccccc3nc3c2c2ccccc2n3C)cc1
3. O=C1CCCCC/C=C2/CC[C@H](Sc3ccccc3)[C@@H]12
4. O=C(c1cc2ccccc2[nH]1)C(O)(c1cc2ccccc2[nH]1)c1cc2ccccc2[nH]1
5. OC(c1cc(C(O)(C(F)(F)F)C(F)(F)F)ncn1)(C(F)(F)F)C(F)(F)F
6. C=CCC(C(=O)OC)C1(C(=O)OC)c2[nH]c3ccccc3c2CCN1Cc1ccccc1 (centres undefined)

RESULT:
1: > 100 µM; 2: > 100 µM; 3: > 100 µM; 4: > 246 µM; 5: > 10 µM; 6: > 100 µM

====

- Test system: SR leukemia
- Assay Remarks: NCI tumour cell line growth inhibition, 48 h
Measured Parameter: TGI

[[record]]
compound = "Fc1ccc(-c2nc(-c3nc4ccc(Cl)cc4[nH]3)cc3c2[nH]c2ccccc23)cc1"
test_result = "> 100 µM"


Provide reported TGI for each item, in the same order as listed.
1. CC(=O)OC1C=CC2CCN3C(=O)c4cc5c(cc4[C@H]1C23)OCO5 (stereo partly drawn)
2. Clc1cc2nc(C3CCCO3)[nH]c2cc1Cl (stereo not drawn)

RESULT:
> 100 µM
> 100 µM
